Target sequence: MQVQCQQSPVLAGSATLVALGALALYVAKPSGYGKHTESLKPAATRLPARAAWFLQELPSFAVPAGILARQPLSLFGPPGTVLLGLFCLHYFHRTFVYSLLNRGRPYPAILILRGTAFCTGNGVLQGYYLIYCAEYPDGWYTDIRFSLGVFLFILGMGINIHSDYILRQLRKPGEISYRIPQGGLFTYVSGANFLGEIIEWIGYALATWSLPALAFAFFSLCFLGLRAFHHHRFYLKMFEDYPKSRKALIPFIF
Ki overview

Consider the reported Ki for these compounds:
In [3]: df
Out[3]:
                                   compound  measurement
0  CC(C)(C)NC(=O)[C@H]1CC[C@H]2[C@@H]3CC=C4C=C(C(=O)O)CC[C@]4(C)[C@H]3CC[C@]12C [drawing 35]        30 nM
1  CCOC(=O)C1=CC2=CC[C@H]3[C@@H]4CC[C@H](C(=O)N(C(C)C)C(C)C)[C@@]4(C)CC[C@@H]3[C@@]2(C)CC1      4000 nM

Lab note: next compound to report on.
Query: Query Ki for C[C@H](CO)[C@H]1CC[C@H]2[C@@H]3CC[C@H]4C(F)=C(C(=O)O)CC[C@]4(C)[C@H]3CC[C@]12C
Response: 2000 nM
